- Test system: Bacillus subtilis
- assay-notes: cleaved RNA product abundance (RNA/gDNA barcode ratio) relative to median wild-type variant (ratio to wild type); higher = more accumulation of the downstream cleavage product
- conditions-used: experiment (reporter, strain, medium): exp 4a: truncated aprE reporter, strain BJT201 with 2% xylose (RNase J1 expressed); cleavage site: cggR-gapA (positions -7 to +36 mutated)
test-readout: cleaved RNA product abundance
The answer should be written as a number, with no unit following it.

Guide cases for cleaved RNA product abundance, answers given:
sequence-input	target-entity	cleaved RNA product abundance
ACAGACGAAGGAGCCGCAAAGAAGTTATTCAGGGATGAATAATCCCTAAATATAAATATCTCTCACTTATTTAAA	Bacillus subtilis	0.713
ACAGACGAAGGAGCCGCAAAGAAGTGATTAAGGGATGAATAATCGCTCAATATAAATATCTCTCACTTATTTAAA	Bacillus subtilis	0.0548
ACAGACGAAGGAGCCGCAAAGAAGTTATTAAGGGATGAATACTCCCTCAATATAAAAATCTCTCACTTATTTAAA	Bacillus subtilis	0.819
ACAGACGAAGGAGCCGCAAAGAAGTTATTAAGGGATTAAGAATCCCTCAATATAAATATCTCTCACTTATTTAAA	Bacillus subtilis	1.06
ACAGACGAAGGAGCCGCAAAGAACTTATTAAGTGATGAATAATCCCTCAATATAAATATCTCTCACTTATTTAAA	Bacillus subtilis	0.0735

cleaved RNA product abundance for ACAGACGAAGGAGCCGCAAAGAAGTTATTAAAGGAGGAATAATCCCTCAATATAAATATCTCTCACTTATTTAAA is 0.25

Measured cleaved RNA product abundance of ACAGACGAAGGAGCCGCAAATAAGTTATTAAGGGATGAATAATCCCTCAATTTAAATATCTCTCACTTATTTAAA : 0.136

Sample ACAGACGAAGGAGCCGCAAAGAAGTTATTAAGGGACGAATAATCCCTCAGTATAAATATCTCTCACTTATTTAAA ; cleaved RNA product abundance observed: 0.415

Please fill in: cleaved RNA product abundance reported for ACAGACGAAGGAGCCGCAAAGAAGTTATTAATGGATGAATACTCCCTCAATATAAATATCTCTCACTTATTTAAA = 0.0655

cleaved RNA product abundance for ACAGACGAAGGAGCCGCAAAGAAGTTATTAAGTGATGAATAATCCATCAATATAAATATCTCTCACTTATTTAAA is 0.165

Just so you know, measured cleaved RNA product abundance for ACAGACGAAGGAGCCGCAAAGAAGTTATTAAGGGATGAATAATCCTTCAAAATAAATATCTCTCACTTATTTAAA came out at 0.253

cleaved RNA product abundance in this record for ACAGACGAAGGAGCCGCAAAGTAGTTATTAAGGGATGAATAATCCCTCAAAATAAATATCTCTCACTTATTTAAA : 0.425

Record ACAGACGAAGGAGCCGCAAAGAAGTTATTAAGGGATCAATAATCCCTTAATATAAATATCTCTCACTTATTTAAA , field cleaved RNA product abundance: 0.486

cleaved RNA product abundance in this record for ACAGACGAAGGAGCCGCAAAGAAGTTAATAAGCGATGAATAATCCCTCAATATAAATATCTCTCACTTATTTAAA : 0.104

Data point: ACAGACGAAGGAGCCGCAAAGAAGTTATTAAAGGATAAATAATCCCTCAATATAAATATCTCTCACTTATTTAAA ; cleaved RNA product abundance = 0.139

cleaved RNA product abundance measured on ACAGACGAAGGAGCCGCAGAGAAGTTATAAAGGGATGAATAATCCCTCAATATAAATATCTCTCACTTATTTAAA = 0.295

Entry ACAGACGAAGGAGCCGCAAAGAAGTTATTAAGGGATGAATAATCCTTCAATATAATTATCTCTCACTTATTTAAA ; cleaved RNA product abundance = 0.387

# sequence ACAGACGAAGGAGCCGCAAAGAAGTTATTAAGGGATGAATAATCCCCCAATATAAATAACTCTCACTTATTTAAA ; its cleaved RNA product abundance = 0.347

In plain terms, ACAGACGAAGGAGCCGCAAAGAAGATATTAAGGGATGAATAATCCATCAATATAAATATCTCTCACTTATTTAAA has a documented cleaved RNA product abundance of 0.207

GET /value?item= ACAGACGAAGGAGCCGCAAAGAAGTTATTAAGCGATGAATAATCCCGCAATATAAATATCTCTCACTTATTTAAA &field=cleaved RNA product abundance returns 0.0767

###

Listing of entries alongside the reported cleaved RNA product abundance.
- Test system: Bacillus subtilis
- assay-notes: cleaved RNA product abundance (RNA/gDNA barcode ratio) relative to median wild-type variant (ratio to wild type); higher = more accumulation of the downstream cleavage product
- conditions-used: experiment (reporter, strain, medium): exp 8a: truncated aprE reporter, strain BJT201 with 2% xylose (RNase J1 expressed); cleavage site: glnRA (positions -5 to +31 mutated)

Example results:
sequence-input	target-entity	result
CGACATGTCCCGCTTCTTTCATTAATCCGTTAACAACAGTTTTGCTATATACATTTACCTTTTAAGAGGAGGAAT	Bacillus subtilis	0.183
CGACATGTCCCGCTTCTTTCATTAATTCGTTAGCAAATGTTTTGCTATATACATTTACCTTTTAAGAGGAGGAAT	Bacillus subtilis	0.87
CGACATGTCCCGCTTCTTTCATTAATCCGTTAGCAACTATTTTTCTATATACATTTACCTTTTAAGAGGAGGAAT	Bacillus subtilis	0.613

Attention now shifts to the item below.
Note to self: cleaved RNA product abundance of CGACATGTCCCGCTTCTTTCATTATTACGTTACCAACTATTTTGCTATATACATTTATCTTTTAAGAGGAGGAAT with Bacillus subtilis was 0.242

###

- Test system: Bacillus subtilis
- assay-notes: cleaved RNA product abundance (RNA/gDNA barcode ratio) relative to median wild-type variant (ratio to wild type); higher = more accumulation of the downstream cleavage product
- conditions-used: experiment (reporter, strain, medium): exp 2b: truncated aprE reporter, strain BJT200; cleavage site: cggR-gapA (positions -7 to +36 mutated)
Please note: True applies when cleaved RNA product abundance is 0.1 or greater, and False applies otherwise.

Past entries and their recorded results:
sequence-input	target-entity	answer-label
ACAGACGAAGGAGCCGCAAAGAAGCTATTAAGGGATGAATAATACCTCAATATAAATATCTCTCACTTATTTAAA	Bacillus subtilis	False
ACAGACGAAGGAGCCGCAAAGAAGTTATTAAGGGATGAATAATCAATCAATATAAATATCTCTCACTTATTTAAA	Bacillus subtilis	True
ACAGACGAAGGAGCCGCAAAGAAGTGATTAAGGGATGAATAATCCTTCAATATAAATATCTCTCACTTATTTAAA	Bacillus subtilis	True

Incoming: # bool: cleaved RNA product abundance of ACAGACGAAGGAGCCGCAAAGAAGTTATTAAAGGATGAATAATCCCTCAATATAAATATCTCTCACTTATTTAAA >= 0.1
Outgoing: True

Incoming: Does the sequence ACAGACGAAGGAGCCGCAAAGAAGTTATTGAGGCATGAATAATCCCTCAATATAAATATCTCTCACTTATTTAAA have recorded cleaved RNA product abundance that is 0.1 or more?
Outgoing: False

Incoming: Hello, I need to know if ACAGACGAAGGAGCCGCAAAGAAGTTATTAAAGGATGATTAATCCCTCAATATAAATATCTCTCACTTATTTAAA has measured cleaved RNA product abundance not below 0.1. Thanks!
Outgoing: True

Incoming: Could you tell me if the measured cleaved RNA product abundance of ACAGACGAAGGAGCCGCAAAGAAGTTACTAAGGGATAAATAATCCCTCAATATAAATATCTCTCACTTATTTAAA reaches 0.1 or more?
Outgoing: True

Incoming: I'd appreciate it if you could say whether ACAGACGAAGGAGCCGCAAAGAACTTATTAAGGGATAAATAATCCCTCAATATAAATATCTCTCACTTATTTAAA has cleaved RNA product abundance at least equal to 0.1.
Outgoing: True

Incoming: Quick check, cleaved RNA product abundance >= 0.1? ACAGACGAAGGAGCCGCAAAGAAGTTATCAAGGGATCAATAATCCCTCAATATAAATATCTCTCACTTATTTAAA
Outgoing: True

Incoming: Evaluate ACAGACGAAGGAGCCGCAAAGAAGTTATTAAGGGATGAATAATCCCTCAAAATAAATATCTCTCACTTATTTAAA : cleaved RNA product abundance at minimum 0.1?
Outgoing: True

###

- Tested on: Bacillus subtilis
- assay-notes: cleaved RNA product abundance (RNA/gDNA barcode ratio) relative to median wild-type variant (ratio to wild type); higher = more accumulation of the downstream cleavage product
- conditions-used: experiment (reporter, strain, medium): exp 8a: truncated aprE reporter, strain BJT201 with 2% xylose (RNase J1 expressed); cleavage site: glnRA (positions -5 to +31 mutated)
Each entry gets 0 (no) if its cleaved RNA product abundance stays under 0.4, and 1 (yes) if its cleaved RNA product abundance is 0.4 or above.

Please review the following examples before continuing.
sequence-input	answer-label
CGACATGTCCCGCTTCTTTCATTAATTCGTTAGCAACTGTTTTGCTATTTACATTTACCTTTTAAGAGGAGGAAT	0 (no)
CGACATGTCCCGCTTCTTTCATTAATCCGTTAGCAACTGTTTTGCGATATACATTTACGTTTTAAGAGGAGGAAT	0 (no)
CGACATGTCCCGCTTCTTTCATTAATTCGTTAGCAACAGTTTTGCTATATACATTTACCTTTTAAGAGGAGGAAT	1 (yes)
CGACATGTCCCGCTTCTTTCATTAATCAGTCAGCAACTGTTTTGCTATATACATTTACCTTTTAAGAGGAGGAAT	0 (no)
CGACATGTCCCGCTTCTTTCATTAATCCGTAAGCATCTGTTTTGCTATATACATTTACCTTTTAAGAGGAGGAAT	0 (no)
CGACATGTCCCGCTTCTTTCATTACTCCGTTAGCAACTGTTTTGCTAAATACATTTACCTTTTAAGAGGAGGAAT	1 (yes)
CGACATGTCCCGCTTCTTTCATTAATCCGTTAACAACTGTTTTGCTATATACACTTACCTTTTAAGAGGAGGAAT	0 (no)
CGACATGTCCCGCTTCTTTCATTAATTCGTTAGCAACTGTCTTGCTATATACATTTACCTTTTAAGAGGAGGAAT	1 (yes)

Incoming: Hi team, for CGACATGTCCCGCTTCTTTCATTAATCCGTTAGCAACTGTTTTACTATATACATTTACATTTTAAGAGGAGGAAT , is the recorded cleaved RNA product abundance at or above 0.4?
Outgoing: 1 (yes)

Incoming: Has CGACATGTCCCGCTTCTTTCATTAATCCGTTAGCAACTGTATTACTATATACATTTACCTTTTAAGAGGAGGAAT a recorded cleaved RNA product abundance greater than or equal to 0.4?
Outgoing: 1 (yes)

Incoming: Is cleaved RNA product abundance at least 0.4? Consider CGACATGTCCCGCTTCTTTCATTAATCCGTTACCAAGTGTTTTGCTATATACATTTACCTTTTAAGAGGAGGAAT
Outgoing: 0 (no)
